- assayedSystem: T1, human TRAIL (TNF Related Apoptosis Inducing Ligand), as used in the receptor binding analysis (human, UniProt P50591 1-281, limits assumed)
- T1 construct: also called huTRAIL
- T1 sequence (P50591 whole entry): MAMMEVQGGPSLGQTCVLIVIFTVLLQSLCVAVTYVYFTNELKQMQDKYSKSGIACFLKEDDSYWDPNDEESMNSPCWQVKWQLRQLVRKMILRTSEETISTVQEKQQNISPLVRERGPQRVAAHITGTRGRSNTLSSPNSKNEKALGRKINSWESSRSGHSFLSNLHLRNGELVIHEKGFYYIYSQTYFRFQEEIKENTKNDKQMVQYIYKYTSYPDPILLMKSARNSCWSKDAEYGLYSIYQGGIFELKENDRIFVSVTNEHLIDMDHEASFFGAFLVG
- assayText: slide autoradiography (procedure of Gearing et al.)
measurementType: binding result

1) human OX40 (receptor, UniProt P43489 29-214, looked up) LHCVGDTYPSNDRCCHECRPGNGMVSRCSRSQNTVCRPCGPGFYNDVVSSKPCKPCTWCNLRSGSERKQLCTATQDTVCRCRAGTQPLDSYKPGVDCAPCPPGHFSPGDNQACKPWTNCTLAGKHTLQPASNSSDAICEDRDPPATQPQETQGPPARPITVQPTEAWPRTSQGPSTRPVEVPGGRA: no binding
2) human TNF-R (p80 form) (receptor, UniProt P20333 23-257, looked up) LPAQVAFTPYAPEPGSTCRLREYYDQTAQMCCSKCSPGQHAKVFCTKTSDTVCDSCEDSTYTQLWNWVPECLSCGSRCSSDQVETQACTREQNRICTCRPGWYCALSKQEGCRLCAPLRKCRPGFGVARPGTETSDVVCKPCAPGTFSNTTSSTDICRPHQICNVVAIPGNASMDAVCTSTSPTRSMAPGAVHLPQPVSTRSQHTQPTPEPSTAPSTSFLLPMGPSPPAEGSTGD: no binding
3) human LTβR (receptor, UniProt P36941 31-227, looked up, also called TNFR-RP) QAVPPYASENQTCRDQEKEYYEPQHRICCSRCPPGTYVSAKCSRIRDTVCATCAENSYNEHWNYLTICQLCRPCDPVMGLEEIAPCTSKRKTQCRCQPGMFCAAWALECTHCELLSDCPPGTEAELKDEVGKGNNHCVPCKAGHFQNTSSPSARCQPHTRCENQGLVEAAPGTAQSDTTCKNPLEPLPPEMSGTMLM: no binding
